Test Method Notes: Simulated intestinal fluid (SIF) stability in the presence of various enzymes
Assay type: in vitro ADME
Test Settings: SIF + Carboxypeptidase A, 120 min, 1 μM
Endpoint: % Remaining of Initial (n = 1) (%)
Write the answer as a number in %, unit excluded.

**Query** Data request, read-out % Remaining of Initial (n = 1), for CCCCCCCCCCCCCCCC(=O)NCCOC(=O)CCC(=O)OCC(O)CO (stereo not shown) [Compound I-9]
**Result** 5.5

**Query** # get_value(readout='% Remaining of Initial (n = 1)', item= CCCCCCCCCCCCCCCC(=O)NCCOC(=O)CCC(=O)OCC(COC(=O)CCCCCCC)OC(=O)CCCCCCC (stereo not shown) [Compound I-3, PEA-Succinate-Glycerol-Di-Caprylic] )
**Result** 20

**Query** # input molecule: CCCCCCCCCCCCCCCC(=O)NCCOC(=O)CCC(=O)OC[C@H]1O[C@@](CO)(O[C@H]2O[C@H](CO)[C@@H](O)[C@H](O)[C@H]2O)[C@@H](O)[C@@H]1O [Compound I-7] ; wanted: its % Remaining of Initial (n = 1)
**Result** 3.9

**Query** GET /values?readout=% Remaining of Initial (n = 1)&item= CC/C=C\C/C=C\C/C=C\C/C=C\C/C=C\CCCC(=O)OCCNC(=O)CCCCCCCCCCCCCCC [Compound I-5]
**Result** 15

----------
Test Method Notes: in vitro
Test Settings: both, human, s9, 1 h, 1 μM
Kindly state % Remaining of Initial (n = 1), 60 min for each of the entries shown.

**Query** Reported % Remaining of Initial (n = 1), 60 min for CCCCC/C=C\C/C=C\CCCCCCCC(=O)OCCNC(=O)CCCCCCCCCCCCCCC : what is it?
**Result** 77%

**Query** Param item = CCCCCCCCCCCCCCCC(=O)NCCOC(=O)CCC(=O)OCC(COC(=O)CCCCCCC)OC(=O)CCCCCCC (stereo not shown) [Compound I-3, PEA-Succinate-Glycerol-Di-Caprylic] ; retrieve measured % Remaining of Initial (n = 1), 60 min.
**Result** 66%

**Query** Name the recorded % Remaining of Initial (n = 1), 60 min for CCCCCCCCCCCCCCCC(=O)NCCOC(=O)CCC(=O)OCC(O)CO (stereo not shown) .
**Result** <1.0%

**Query** What % Remaining of Initial (n = 1), 60 min value was documented for this molecule, CCCCCCCCCCCCCCCC(=O)NCCOC(=O)CCC(=O)OC[C@H]1O[C@@](CO)(O[C@H]2O[C@H](CO)[C@@H](O)[C@H](O)[C@H]2O)[C@@H](O)[C@@H]1O ?
**Result** <1.0%

**Query** Sample CC/C=C\C/C=C\C/C=C\C/C=C\C/C=C\CCCC(=O)OCCNC(=O)CCCCCCCCCCCCCCC — what was its % Remaining of Initial (n = 1), 60 min?
**Result** 72%

**Query** Quick one: % Remaining of Initial (n = 1), 60 min of CCCCCCCCCCCCCCCC(=O)NCCOC(=O)CCC(=O)OCC(COC(=O)CCC)OC(=O)CCC (stereo not shown) ?
**Result** <1.0%

**Query** Could you tell me which % Remaining of Initial (n = 1), 60 min is on file for CCCCCCCCCCCCCCCC(=O)NCCOC(=O)CCC ?
**Result** <1.0%

----------
Test Method Notes: Simulated intestinal fluid (SIF) stability in the presence of various enzymes
Type: in vitro ADME
Test Settings: SIF + Pancreatin, 120 min, 1 μM
Protocol: Studies were carried out in simulated intestinal fluid in the presence of various enzymes. Simulated intestinal fluid was prepared by dissolving 6.8 g of monobasic potassium phosphate in 1.0 L of water. Aliquots of this solution were taken and the pH was adjusted to 6.8. Individual enzymes were then spiked into aliquots for each experiment. A DMSO stock was first prepared for the test article. […]
Endpoint: % Remaining of Initial (n = 1) (%)
Express the result in % but write the number alone.

**Query** # lookup: % Remaining of Initial (n = 1) of CCCCCCCCCCCCCCCC(=O)NCCOC(=O)CCC(=O)OC[C@H]1O[C@@](CO)(O[C@H]2O[C@H](CO)[C@@H](O)[C@H](O)[C@H]2O)[C@@H](O)[C@@H]1O
**Result** 2.7

**Query** What % Remaining of Initial (n = 1) value was documented for this compound, CCCCCCCCCCCCCCCC(=O)NCCOC(=O)CCC(=O)OCC(O)CO (centres unmarked) ?
**Result** 13

**Query** Record request: % Remaining of Initial (n = 1) value, item CCCCC/C=C\C/C=C\CCCCCCCC(=O)OCCNC(=O)CCCCCCCCCCCCCCC
**Result** 1.7

**Query** Any idea what its % Remaining of Initial (n = 1) is? The compound is CCCCCCCCCCCCCCCC(=O)NCCOC(=O)CCC
**Result** 60

----------
Test Method Notes: Simulated intestinal fluid (SIF) stability in the presence of various enzymes
Assay type: in vitro ADME
Test Settings: simulated intestinal fluid with carboxypeptidase B, pH 6.8, SIF + Carboxypeptidase B, 1 μM; read-out: Half-life
Can you tell me half-life at 1 μM for the items I'm about to list?
# number only, unit min dropped from output

**Query** Data request, read-out half-life at 1 μM, for CCCCC/C=C\C/C=C\CCCCCCCC(=O)OCC(COC(=O)CCC(=O)OCCNC(=O)CCCCCCCCCCCCCCC)OC(=O)CCCCCCC/C=C\C/C=C\CCCCC (centres unmarked)
**Result** 20

**Query** So what does the record say about half-life at 1 μM for CC/C=C\C/C=C\C/C=C\C/C=C\C/C=C\CCCC(=O)OCCNC(=O)CCCCCCCCCCCCCCC ?
**Result** 45

**Query** So what's the measured half-life at 1 μM for this one? CCCCCCCCCCCCCCCC(=O)NCCOC(=O)CCC(=O)OCC(COC(=O)CCCCCCC)OC(=O)CCCCCCC (centres unmarked) [Compound I-3, PEA-Succinate-Glycerol-Di-Caprylic]
**Result** 49

**Query** For the compound shown here, CCCCCCCCCCCCCCCC(=O)NCCOC(=O)CCC(=O)OCC(O)CO (centres unmarked) , give the reported half-life at 1 μM.
**Result** 12

**Query** Which measured half-life at 1 μM value corresponds to CCCCCCCCCCCCCCCC(=O)NCCOC(=O)CCC(=O)OC[C@H]1O[C@@](CO)(O[C@H]2O[C@H](CO)[C@@H](O)[C@H](O)[C@H]2O)[C@@H](O)[C@@H]1O ?
**Result** 10

**Query** Any idea what half-life at 1 μM was measured for CCCCCCCCCCCCCCCC(=O)NCCOC(=O)CCC(=O)OCC(COC(=O)CCC)OC(=O)CCC (centres unmarked) ?
**Result** 34

**Query** Dear colleague, I am looking for the recorded half-life at 1 μM of the following compound: CCCCCCCCCCCCCCCC(=O)NCCOC(=O)CCC
**Result** 43

**Query** Item CCCCC/C=C\C/C=C\CCCCCCCC(=O)OCCNC(=O)CCCCCCCCCCCCCCC has what recorded half-life at 1 μM?
**Result** 62

----------
Assignment: determine reported microsomal CLint at 1 μM for the given molecules.
Test Method Notes: in vitro
Test Settings: both, human, microsomes, CLint, calculated value in parentheses
Give a bare numeral; the unit µL/min/mg is implied.

**Query** Dear colleague, I am looking for the recorded microsomal CLint at 1 μM of the following molecule: CCCCCCCCCCCCCCCC(=O)NCCOC(=O)CCC(=O)OC(CO)CO [Compound I-8]
**Result** 712

**Query** Sample CC/C=C\C/C=C\C/C=C\C/C=C\C/C=C\CCCC(=O)OCCNC(=O)CCCCCCCCCCCCCCC [Compound I-5] — what was its microsomal CLint at 1 μM?
**Result** 15.4

**Query** Need microsomal CLint at 1 μM, item CCCCC/C=C\C/C=C\CCCCCCCC(=O)OCCNC(=O)CCCCCCCCCCCCCCC [Compound I-6]
**Result** 14.3

**Query** Please look up its microsomal CLint at 1 μM: CCCCCCCCCCCCCCCC(=O)NCCOC(=O)CCC(=O)OC(COC(=O)CCC)COC(=O)CCC [Compound I-16]
**Result** 493

**Query** // microsomal CLint at 1 μM lookup, key: CCCCCCCCCCCCCCCC(=O)NCCOC(=O)CCC(=O)OCC(O)CO (stereo not drawn) [Compound I-9]
**Result** 888

**Query** Query (molecule): CCCCCCCCCCCCCCCC(=O)NCCOC(=O)CCC(=O)OCC(COC(=O)CCCCCCC)OC(=O)CCCCCCC (stereo not drawn) [Compound I-3, PEA-Succinate-Glycerol-Di-Caprylic] ; field requested: microsomal CLint at 1 μM
**Result** 20

----------
Test Method Notes: in vitro
Test Settings: male, Sprague-Dawley, rat, 30 min, 1 μM
Label Yes when Concentration (μM) of analyte PEA, 30 min is at or above 0.1 µM; anything below gets No.

**Query** Textbook exercise: given the entry CCCCCCCCCCCCCCCC(=O)NCCOC(=O)CCC(=O)OCC(O)CO (stereo not shown) [Compound I-9] , state whether its Concentration (μM) of analyte PEA, 30 min is greater than or equal to 0.1 µM.
**Result** Yes

**Query** Say whether CCCCCCCCCCCCCCCC(=O)NCCOC(=O)CCC [Compound I-2] shows Concentration (μM) of analyte PEA, 30 min of 0.1 µM or more.
**Result** Yes

**Query** Evaluate CCCCCCCCCCCCCCCC(=O)NCCOC(=O)CCC(=O)OCC(COC(=O)CCC)OC(=O)CCC (stereo not shown) [Compound I-11] : Concentration (μM) of analyte PEA, 30 min at minimum 0.1 µM?
**Result** No

**Query** Please indicate if the recorded Concentration (μM) of analyte PEA, 30 min for CCCCC/C=C\C/C=C\CCCCCCCC(=O)OCCNC(=O)CCCCCCCCCCCCCCC [Compound I-6] meets or exceeds 0.1 µM.
**Result** No

**Query** Does the reported Concentration (μM) of analyte PEA, 30 min for CCCCCCCCCCCCCCCC(=O)NCCOC(=O)CCC(=O)OC[C@H]1O[C@@](CO)(O[C@H]2O[C@H](CO)[C@@H](O)[C@H](O)[C@H]2O)[C@@H](O)[C@@H]1O [Compound I-7] fall at or above the 0.1 µM mark?
**Result** Yes

**Query** Does CC/C=C\C/C=C\C/C=C\C/C=C\C/C=C\CCCC(=O)OCCNC(=O)CCCCCCCCCCCCCCC [Compound I-5] have a reported Concentration (μM) of analyte PEA, 30 min of at least 0.1 µM?
**Result** No

**Query** Hi, just wondering whether CCCCCCCCCCCCCCCC(=O)NCCOC(=O)CCC(=O)OCC(COC(=O)CCCCCCC)OC(=O)CCCCCCC (stereo not shown) [Compound I-3, PEA-Succinate-Glycerol-Di-Caprylic] shows Concentration (μM) of analyte PEA, 30 min of 0.1 µM or higher.
**Result** No
